pIC50 listing for selected compounds.
experimental-system: Mer (Homo sapiens (Human), UniProt Q12866)
Sequence (Q12866 21-999): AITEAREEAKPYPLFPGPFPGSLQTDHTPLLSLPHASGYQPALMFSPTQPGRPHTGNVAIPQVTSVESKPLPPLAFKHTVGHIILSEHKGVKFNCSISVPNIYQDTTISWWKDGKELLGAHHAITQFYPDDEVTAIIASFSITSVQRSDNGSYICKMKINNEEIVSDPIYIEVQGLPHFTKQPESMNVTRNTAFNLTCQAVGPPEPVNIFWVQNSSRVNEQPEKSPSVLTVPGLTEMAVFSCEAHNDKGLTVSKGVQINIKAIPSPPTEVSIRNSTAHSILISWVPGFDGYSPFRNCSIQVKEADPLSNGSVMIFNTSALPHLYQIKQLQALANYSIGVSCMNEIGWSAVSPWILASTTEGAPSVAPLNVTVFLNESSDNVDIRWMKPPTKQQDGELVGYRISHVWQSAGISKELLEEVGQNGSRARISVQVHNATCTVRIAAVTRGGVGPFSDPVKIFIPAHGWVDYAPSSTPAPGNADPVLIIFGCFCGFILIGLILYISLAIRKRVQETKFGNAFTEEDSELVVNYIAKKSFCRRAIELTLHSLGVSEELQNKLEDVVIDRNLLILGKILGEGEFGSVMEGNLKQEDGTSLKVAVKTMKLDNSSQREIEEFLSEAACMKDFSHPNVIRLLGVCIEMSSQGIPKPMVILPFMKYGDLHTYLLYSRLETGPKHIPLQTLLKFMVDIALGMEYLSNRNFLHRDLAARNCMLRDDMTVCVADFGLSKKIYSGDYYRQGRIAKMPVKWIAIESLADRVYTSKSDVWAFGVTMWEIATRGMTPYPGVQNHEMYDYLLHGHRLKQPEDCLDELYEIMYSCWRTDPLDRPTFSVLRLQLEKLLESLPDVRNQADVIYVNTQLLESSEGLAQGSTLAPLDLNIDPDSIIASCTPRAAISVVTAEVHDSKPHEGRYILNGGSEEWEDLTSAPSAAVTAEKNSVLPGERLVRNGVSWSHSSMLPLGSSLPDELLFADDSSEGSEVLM
test-method-notes: Mer autophosphorylation ELISA in transient transfected 293A cells
details: cellular, MERTK transfected 293A cells
pIC50: −log10 of the molar value.

For orientation, consider the following solved cases.
compound: O=C(Nc1ccc(F)cc1)C1(C(=O)Nc2ccc(Oc3ccnc4cc(OCCO)c(-c5ncco5)cc34)cc2)CC1
result: ≥ 8.00
//
compound: CNC(=O)c1ccc2c(Oc3ccc(NC(=O)C4(C(=O)Nc5ccc(F)cc5)CC4)cc3)ccnc2c1
result: 7.00 to 8.00

As a next step, examine the compound that follows.
State its pIC50 on Mer (Homo sapiens (Human), UniProt Q12866): O=C(NOC[C@H](O)CO)c1ccc2c(Oc3ccc(NC(=O)C4(C(=O)Nc5ccc(F)cc5)CC4)cc3)ccnc2c1 < 6.52

---

Listed next: entries and their corresponding IC50.
experimental-system: Human Axl (residues H473-A894 with Q764R) (Homo sapiens (Human), UniProt P30530, Q764R)
Sequence (P30530 473-894 Q764R): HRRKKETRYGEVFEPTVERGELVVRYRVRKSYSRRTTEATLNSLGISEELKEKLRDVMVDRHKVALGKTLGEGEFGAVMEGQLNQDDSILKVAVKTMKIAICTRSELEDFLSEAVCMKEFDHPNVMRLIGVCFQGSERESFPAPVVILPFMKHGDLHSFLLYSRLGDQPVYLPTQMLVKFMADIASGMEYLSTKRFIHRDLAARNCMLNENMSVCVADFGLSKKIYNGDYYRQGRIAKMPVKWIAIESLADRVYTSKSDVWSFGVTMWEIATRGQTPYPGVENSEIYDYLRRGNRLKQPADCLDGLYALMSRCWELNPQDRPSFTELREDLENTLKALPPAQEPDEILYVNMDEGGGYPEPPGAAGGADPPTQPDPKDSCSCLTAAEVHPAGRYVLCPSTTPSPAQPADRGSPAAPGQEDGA
test-method-notes: Human AXL kinase assay (33P radiometric, KinaseProfiler)
details: 10 μM ATP

The examples below pair each entry with its known result.
molecule: NC(=O)c1ccc2nccc(Oc3ccc(NC(=O)C4(C(=O)Nc5ccc(F)cc5)CC4)cc3)c2c1 [Compound 58]
IC50: 0.01 to 0.1 µM

molecule: NC(=O)c1cc2c(Oc3ccc(NC(=O)C4(C(=O)Nc5ccc(F)cc5)CC4)cc3)ccnc2cc1Br [Compound 69]
IC50: 0.1 to 1 µM

molecule: NC(=O)c1cc2c(Oc3ccc(NC(=O)C4(C(=O)Nc5ccc(F)cc5)CC4)cc3)ccnc2cc1Cl [Compound 68]
IC50: 0.1 to 1 µM

molecule: COc1cc2nccc(Oc3ccc(NC(=O)C4(C(=O)Nc5ccc(F)cc5)CC4)cc3)c2cc1-c1ccncc1 [Compound 202]
IC50: 0.01 to 0.1 µM

molecule: COc1cc2nccc(Oc3ccc(NC(=O)C4(C(=O)Nc5ccc(F)cc5)CC4)cc3)c2cc1-c1cccnc1 [Compound 201]
IC50: ≤ 0.01 µM

molecule: COc1cc2c(Oc3ccc(NC(=O)C4(C(=O)Nc5ccc(F)cc5)CC4)cc3)ccnc2cc1C(=O)O [Compound 151]
IC50: 0.1 to 1 µM

Now for the molecule whose IC50 we want.
Entry Cc1cc2c(Oc3ccc(NC(=O)C4(C(=O)Nc5ccc(F)cc5)CC4)cc3)ccnc2cc1C(=O)O [Compound 141] , system Human Axl (residues H473-A894 with Q764R) (Homo sapiens (Human), UniProt P30530, Q764R): what IC50 was measured? > 1 µM

---

experimental-system: AXL (Homo sapiens (Human), UniProt P30530)
Sequence (P30530 26-894): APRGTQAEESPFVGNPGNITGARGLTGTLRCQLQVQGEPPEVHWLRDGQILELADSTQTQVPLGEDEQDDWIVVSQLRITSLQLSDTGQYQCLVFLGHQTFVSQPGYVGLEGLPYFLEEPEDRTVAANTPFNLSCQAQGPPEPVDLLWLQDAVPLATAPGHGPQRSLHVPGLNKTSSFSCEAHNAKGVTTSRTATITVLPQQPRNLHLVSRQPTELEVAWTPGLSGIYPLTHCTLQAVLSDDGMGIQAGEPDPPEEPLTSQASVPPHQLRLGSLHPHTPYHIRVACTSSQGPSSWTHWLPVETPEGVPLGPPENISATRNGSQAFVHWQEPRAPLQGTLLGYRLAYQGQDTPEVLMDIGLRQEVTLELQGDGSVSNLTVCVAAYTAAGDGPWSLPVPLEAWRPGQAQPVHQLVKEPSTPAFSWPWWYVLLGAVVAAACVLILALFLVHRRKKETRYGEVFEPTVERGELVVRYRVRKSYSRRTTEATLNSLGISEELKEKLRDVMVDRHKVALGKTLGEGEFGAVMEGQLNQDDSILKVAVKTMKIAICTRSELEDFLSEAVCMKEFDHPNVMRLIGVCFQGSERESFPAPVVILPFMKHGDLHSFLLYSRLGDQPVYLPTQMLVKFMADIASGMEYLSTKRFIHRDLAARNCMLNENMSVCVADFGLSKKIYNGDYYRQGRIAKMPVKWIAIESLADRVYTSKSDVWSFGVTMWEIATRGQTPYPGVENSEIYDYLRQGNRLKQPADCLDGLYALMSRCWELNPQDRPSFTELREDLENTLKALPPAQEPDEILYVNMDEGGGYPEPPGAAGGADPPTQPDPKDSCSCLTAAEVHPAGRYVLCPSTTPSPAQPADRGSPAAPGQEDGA
test-method-notes: AXL autophosphorylation ELISA in A-172 cells
details: cellular, Gas6 stimulated
pIC50: −log10 of the molar value.
molecules and their reported pIC50

Recorded pIC50, per entry:
molecule: COc1cc2nccc(Oc3ccc(NC(=O)C4(C(=O)Nc5ccc(F)cc5)CC4)cc3)c2cc1C(N)=O [Compound 7]
experimental-system: AXL (Homo sapiens (Human), UniProt P30530)
pIC50: ≥ 8.00
--
molecule: COc1cc2nccc(Oc3ccc(NC(=O)C4(C(=O)Nc5ccc(F)cc5)CC4)cc3)c2cc1-c1ccncc1 [Compound 202]
experimental-system: AXL (Homo sapiens (Human), UniProt P30530)
pIC50: 7.00 to 8.00
--
molecule: CNc1cc2nccc(Oc3ccc(NC(=O)C4(C(=O)Nc5ccc(F)cc5)CC4)cc3)c2cc1C(=O)OC [Compound 84]
experimental-system: AXL (Homo sapiens (Human), UniProt P30530)
pIC50: ≥ 8.00
--
molecule: COc1cc2nccc(Oc3ccc(NC(=O)C4(C(=O)Nc5ccc(F)cc5)CC4)cc3)c2cc1N1CCC1 [Compound 198]
experimental-system: AXL (Homo sapiens (Human), UniProt P30530)
pIC50: 7.00 to 8.00
--
molecule: COc1cc2nccc(Oc3ccc(NC(=O)C4(C(=O)Nc5ccc(F)cc5)CC4)cc3)c2cc1S(N)(=O)=O [Compound 206]
experimental-system: AXL (Homo sapiens (Human), UniProt P30530)
pIC50: ≥ 8.00
--
molecule: CC(O)COc1cc2nccc(Oc3ccc(NC(=O)C4(C(=O)Nc5ccc(F)cc5)CC4)cc3)c2cc1C(N)=O (centres unmarked) [Compound 115]
experimental-system: AXL (Homo sapiens (Human), UniProt P30530)
pIC50: ≥ 8.00

I have this molecule here, CNC(=O)c1cc2c(Oc3ccc(NC(=O)C4(C(=O)Nc5ccc(F)cc5C5CC5)CC4)cc3F)ccnc2cc1OC [Compound 270] , and I need its recorded pIC50. 7.00 to 8.00

Same thing, different molecule: CNC(=O)c1cc2nccc(Oc3ccc(NC(=O)C4(C(=O)Nc5ccc(F)cc5)CC4)cc3)c2cc1OC [Compound 153] 7.00 to 8.00

Also COC(=O)c1cc2c(Oc3ccc(NC(=O)C4(C(=O)Nc5ccc(F)cc5)CC4)cc3Cl)ccnc2cc1OC [Compound 128] , if possible. 7.00 to 8.00

Would you kindly repeat that for COc1cc2nccc(Oc3ccc(NC(=O)C4(C(=O)Nc5ccc(F)cc5)CC4)cc3)c2cc1N1CC(F)(F)C1 [Compound 200] ? 7.00 to 8.00

Now try COC(=O)c1cc2c(Oc3ccc(NC(=O)C4(C(=O)Nc5ccc(F)cc5)CC4)cc3F)ccnc2cc1OC [Compound 129] . ≥ 8.00

Continue with COc1cc2nccc(Oc3ccc(NC(=O)C4(C(=O)Nc5ccc(F)cc5)CC4)cc3F)c2cc1C(=O)O [Compound 131] < 6.52

For NC(=O)c1cc2c(Oc3ccc(NC(=O)C4(C(=O)Nc5ccc(F)cc5)CC4)cc3)ccnc2cc1OCCO [Compound 106] then? ≥ 8.00

Thanks! And CNC(=O)c1cc2c(Oc3ccc(NC(=O)C4(C(=O)Nc5ccc(F)cc5)CC4)cc3)ccnc2cc1NC [Compound 83] ? 7.00 to 8.00

Cited source for all entries: patent US11542259B2
